Recorded values, source patent US20220332795A1.

Target: T1, recombinant biotinylated human CD71 extracellular domain (human, UniProt P02786 89-760, biotinylated)
T1 construct: extracellular domain; also called hCD71; huCD71 ECD
T1 sequence (P02786 other isoform, or with tags, fused parts or gaps): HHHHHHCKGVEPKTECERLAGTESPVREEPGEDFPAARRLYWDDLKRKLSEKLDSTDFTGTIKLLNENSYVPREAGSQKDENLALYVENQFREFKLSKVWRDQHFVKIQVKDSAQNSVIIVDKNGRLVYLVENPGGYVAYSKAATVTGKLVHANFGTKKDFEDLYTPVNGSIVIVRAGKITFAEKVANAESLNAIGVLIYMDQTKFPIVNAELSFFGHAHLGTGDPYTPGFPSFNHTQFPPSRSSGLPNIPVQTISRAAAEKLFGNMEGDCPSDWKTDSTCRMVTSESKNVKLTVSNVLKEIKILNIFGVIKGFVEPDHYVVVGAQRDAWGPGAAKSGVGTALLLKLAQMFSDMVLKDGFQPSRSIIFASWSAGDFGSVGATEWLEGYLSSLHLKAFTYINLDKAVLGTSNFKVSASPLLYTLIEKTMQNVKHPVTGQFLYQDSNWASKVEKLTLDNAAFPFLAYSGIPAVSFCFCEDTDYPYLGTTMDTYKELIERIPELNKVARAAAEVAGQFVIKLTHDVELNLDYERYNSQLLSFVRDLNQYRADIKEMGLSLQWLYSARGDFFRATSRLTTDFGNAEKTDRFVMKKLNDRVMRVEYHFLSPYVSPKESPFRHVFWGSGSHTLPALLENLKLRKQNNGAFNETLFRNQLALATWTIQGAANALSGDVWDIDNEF
Experiment: solution ELISA, signal ratio to HSA
Would you kindly list hCD71:HSA for each of these binders?
I'd appreciate a reply containing only the number, no unit.

# input binder: SEQ ID NO 171 (designed binder, FN3 domain) MLPAPKNLVVSRVTEDSARLSWTAPDAAFDSFYIAYAEPRPDGEAIQLWVPGSERSYDLTGLKPGTEYSVLIHGVKGGLLSSPLDAYFTT ; wanted: its hCD71:HSA 35.3

Follow-up entry: SEQ ID NO 186 (designed binder, FN3 domain) MLPAPKNLVVSRVTEDSARLSWTAPDAAFDSFYIAYAEPRPDGEAIQLGVPGSERSYDLTGLKPGTEYSVLIHGVKGGLLSSPLSAIFTT 50.6

SEQ ID NO 106 (designed binder, FN3 domain) MLPAPKNLVVSRVTEDSARLSWTAPDAAFDSFYIAYAEPRPDGEAILLDVPGSERSYDLTGLKPGTEYSVLIHGVKGGLLSSPLYASFTT , same question. 118

Next entry: SEQ ID NO 138 (designed binder, FN3 domain) MLPTPKNLVVSRVTEDSARLSWTAPDAAFDSFYIAYAEPRPDGEAIQLRVPGSERSYDLTGLKPGTEYSVLIHGVKGGLLSSPLHASFTT 74.3
